Target: TLR2 (Homo sapiens)
Construct: host or cells: HEK293
Sequence (O60603 21-784): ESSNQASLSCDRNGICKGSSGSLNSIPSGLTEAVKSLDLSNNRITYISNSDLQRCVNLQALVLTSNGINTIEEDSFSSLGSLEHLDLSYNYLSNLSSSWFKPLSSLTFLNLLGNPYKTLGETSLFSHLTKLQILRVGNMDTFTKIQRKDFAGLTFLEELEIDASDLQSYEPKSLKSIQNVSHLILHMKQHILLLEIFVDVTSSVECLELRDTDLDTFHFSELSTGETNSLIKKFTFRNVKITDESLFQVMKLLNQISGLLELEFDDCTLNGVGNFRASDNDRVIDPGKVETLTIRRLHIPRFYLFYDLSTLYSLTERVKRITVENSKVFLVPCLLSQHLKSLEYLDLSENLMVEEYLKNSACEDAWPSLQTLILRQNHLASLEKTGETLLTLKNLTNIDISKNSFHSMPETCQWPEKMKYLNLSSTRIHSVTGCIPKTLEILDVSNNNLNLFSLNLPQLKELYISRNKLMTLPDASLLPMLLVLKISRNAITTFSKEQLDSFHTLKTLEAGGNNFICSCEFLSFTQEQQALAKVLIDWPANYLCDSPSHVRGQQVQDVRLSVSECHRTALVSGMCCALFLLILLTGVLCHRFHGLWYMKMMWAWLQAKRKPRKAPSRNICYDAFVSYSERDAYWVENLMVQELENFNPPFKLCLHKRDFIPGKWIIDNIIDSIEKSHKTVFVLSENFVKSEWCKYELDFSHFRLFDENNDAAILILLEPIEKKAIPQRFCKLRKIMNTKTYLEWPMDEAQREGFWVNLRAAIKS
Experiment: HEK-TLR2 IL-8 secretion
Format: cell-based
Conditions: 370 ng/ml, 24 h
Documented IL-8 secretion, mean across a set of compounds
TEST_READOUT: IL-8 secretion, mean (pg/mL)

COMPOUND: CCCCCCCCCCCC(=O)O[C@H](CCCCCCCCCCC)CC(=O)N[C@H]1[C@H](OC[C@H]2O[C@H](OCCC)[C@H](NC(=O)C[C@H](O)CCCCCCCCCCC)[C@@H](O)[C@@H]2O)O[C@H](CO)[C@@H](OP(=O)(O)O)[C@@H]1O
TEST_READOUT: IL-8 secretion, mean
OBS_VALUE: 0.25

COMPOUND: CCCCCCCCCCCC(=O)O[C@H](CCCCCCCCCCC)CC(=O)N[C@H]1[C@H](OC[C@H]2O[C@H](OCC(O)CO)[C@H](NC(=O)C[C@H](O)CCCCCCCCCCC)[C@@H](O)[C@@H]2O)O[C@H](CO)[C@@H](OP(=O)(O)O)[C@@H]1O (stereo partly shown)
TEST_READOUT: IL-8 secretion, mean
OBS_VALUE: 0.20

COMPOUND: CCCCCCCCCCCC(=O)O[C@H](CCCCCCCCCCC)CC(=O)N[C@H]1[C@H](OC[C@H]2O[C@H](OCCOP(=O)(O)O)[C@H](NC(=O)C[C@H](O)CCCCCCCCCCC)[C@@H](O)[C@@H]2O)O[C@H](CO)[C@@H](OP(=O)(O)O)[C@@H]1O
TEST_READOUT: IL-8 secretion, mean
OBS_VALUE: 0.31

COMPOUND: CCCCCCCCCCCC(=O)O[C@H](CCCCCCCCCCC)CC(=O)N[C@H]1[C@H](OC[C@H]2O[C@H](O)[C@H](NC(=O)C[C@H](O)CCCCCCCCCCC)[C@@H](O)[C@@H]2O)O[C@H](CO)[C@@H](OP(=O)(O)O)[C@@H]1O
TEST_READOUT: IL-8 secretion, mean
OBS_VALUE: 0.12
